- MEASUREMENT_PROTOCOL: compound effects on differentiated 3T3-L1 adipocyte viability – cell-based, 3T3-L1 adipocytes, calcein-AM fluorescence, 48 h, basal, profiling panel (AID 1163); further: test concentration not given here
- CONDITION_PARAMETERS: 3T3-L1 adipocytes viability, higher = more signal
Entries are sorted into classes by z-score as follows: LOW: < -0.2; MEDIUM: ≥ -0.2 and < 0.9; HIGH: ≥ 0.9

{"MOLECULE": "COC(=O)[C@]1(Cc2ccccc2CN=[N+]=[N-])N=C(c2ccc(OCCCO)cc2)O[C@@H]1c1ccccc1", "QUALITATIVE_LABEL": "MEDIUM"}
{"MOLECULE": "C[N+](C)(C)CCCC[C@@H]1NC(=O)[C@@H]2C[C@H](C(=O)O)[C@H](c3cccc(OCCO)c3)N2C1=O", "QUALITATIVE_LABEL": "MEDIUM"}
{"MOLECULE": "CCCCC=C[C@@H](NC(=O)CCc1ccccc1)c1ccccc1", "QUALITATIVE_LABEL": "LOW"}
{"MOLECULE": "O=C1C2C=CC(C(O)c3cccc4ccccc34)N(Nc3ccccc3)C2C(=O)N1c1ccccc1 (stereo not given)", "QUALITATIVE_LABEL": "LOW"}
{"MOLECULE": "COC(=O)[C@H]1N=C(c2ccc(OCCCO)cc2)O[C@H]1c1ccccc1CN=[N+]=[N-]", "QUALITATIVE_LABEL": "LOW"}
{"MOLECULE": "OCc1ccc(-c2cc[n+](Cc3cccc(OC(F)(F)F)c3)cc2)cc1", "QUALITATIVE_LABEL": "HIGH"}
{"MOLECULE": "CN(C)CCCN1C(=O)[C@@]2(Cc3ccccc31)c1ccccc1C(=O)N(Cc1ccccc1)[C@H]2c1ccc(CO)cc1", "QUALITATIVE_LABEL": "HIGH"}

---

- MEASUREMENT_PROTOCOL: resazurin metabolic signal in HepG2 cells – cell-based, resazurin fluorescence, 24 h, PK04 Diversity Set, profiling panel (AID 1172); further: test concentration not given here
- CONDITION_PARAMETERS: HepG2 viability, higher = more signal
QUANTITY_NAME: z-score

{"COMPOUND": "C[C@]12C(=O)N(CCCCCO)[C@@H]3C(=O)N(c4ccc(Cl)cc4)CC=CC31O[C@@H]1/C=C\\CCCOC(=O)C12 (some centres not stated)", "REPORTED_MEASUREMENT": -0.626}
{"COMPOUND": "COc1ccc([Si](C)(C)[C@@H]2[C@@H](CCO)O[C@]3(C(=O)N(Cc4ccc(N5C(=O)c6ccccc6Oc6ccccc65)cc4)c4ccccc43)[C@H]2C)cc1", "REPORTED_MEASUREMENT": 0.0213}
{"COMPOUND": "COCC(=C=CC[C@@H](O)c1ccccc1OCCO)C[C@@H](O)c1ccccn1", "REPORTED_MEASUREMENT": -0.415}
{"COMPOUND": "COC(=O)[C@@]1(Cc2ccccc2)[C@H]2c3cc(C(=O)N4CCCC4)n(Cc4ccccc4)c3C[C@H]2CN1C(=O)c1ccccc1", "REPORTED_MEASUREMENT": -2.54}
{"COMPOUND": "C[N+](C)(C)CCCCNC(=O)[C@H]1C[C@H]2C(=O)NCC(=O)N2[C@H]1c1ccc(O)cc1", "REPORTED_MEASUREMENT": -0.103}
{"COMPOUND": "COC(=O)C(CC#Cc1ccc2c(c1)[C@]1(C(=O)N2)[C@H](C(=O)N2CCc3cc(OC)c(OC)cc3C2)[C@H]2C(=O)O[C@H](c3ccccc3)[C@H](c3ccccc3)N2[C@@H]1c1ccc(OCCO)cc1)C(=O)OC", "REPORTED_MEASUREMENT": -0.0956}
{"COMPOUND": "COc1ccc(C(=O)Nc2ccc(CN3C(=O)[C@@]4(O[C@@H](CC(=O)N5Cc6ccccc6C[C@H]5CO)[C@H]([Si](C)(C)c5ccc(OC)cc5)[C@H]4C)c4ccccc43)cc2)cc1", "REPORTED_MEASUREMENT": 0.473}
{"COMPOUND": "CCN(CC)c1ccc(N2CC=CC34O[C@@H]5/C=C\\CCCOC(=O)C5[C@H]3C(=O)N(CCCCCCO)[C@@H]4C2=O)cc1 (some centres not stated)", "REPORTED_MEASUREMENT": -0.574}
{"COMPOUND": "NC(=O)NCC#Cc1ccc2c(c1)[C@]1(C(=O)N2)[C@H](c2ccc(O)cc2)N2[C@H](c3ccccc3)[C@H](c3ccccc3)OC(=O)[C@H]2[C@@H]1C(=O)NC[C@H](O)c1ccccc1", "REPORTED_MEASUREMENT": 0.22}
{"COMPOUND": "Cc1ccc(S[C@]2(C(=O)NCC(C)C)CC(=O)N(C3CCCCC3)[C@@H]2c2ccc(CO)cc2I)cc1", "REPORTED_MEASUREMENT": 0.33}
{"COMPOUND": "COc1cc(C(O)C2C=CC3C(=O)NC(=O)C3N2Nc2ccc(Cl)cc2Cl)cc(OC)c1OC (configuration not stated)", "REPORTED_MEASUREMENT": -0.925}
{"COMPOUND": "Cc1ccccc1C(O)C1C=CC2C(=O)N(Cc3ccccc3)C(=O)C2N1n1cnnc1 (configuration not stated)", "REPORTED_MEASUREMENT": 1.09}
{"COMPOUND": "COc1ccc(C(=O)Nc2ccc3c(c2)[C@]2(O[C@@H](CCO)[C@H]([Si](C)(C)c4ccc(OC)cc4)[C@H]2C)C(=O)N3Cc2ccccc2)cc1", "REPORTED_MEASUREMENT": -1.9}
{"COMPOUND": "COCCOC(=O)N1C(=O)[C@@]2(c3cc(C#CCCO)ccc31)[C@H](C(=O)NC[C@H](O)c1ccccc1)[C@H]1C(=O)O[C@H](c3ccccc3)[C@H](c3ccccc3)N1[C@@H]2c1ccccc1OCCO", "REPORTED_MEASUREMENT": 0.446}
{"COMPOUND": "O=C1O[C@H](c2ccccc2)[C@H](c2ccccc2)N2[C@H]1[C@@H](C(=O)N1CCCCCCC1)[C@]1(C(=O)Nc3ccccc31)[C@H]2c1ccc(O)cc1", "REPORTED_MEASUREMENT": -0.642}
{"COMPOUND": "CCOC(=O)C1=CCC(c2cccc(Cl)c2)O1 (configuration not stated)", "REPORTED_MEASUREMENT": 0.482}
{"COMPOUND": "O=C1N(CCS(=O)(=O)c2ccccc2)c2ccccc2[C@H]2OC(c3ccc(OCCCO)cc3)=N[C@@]12CCS(=O)(=O)c1ccccc1", "REPORTED_MEASUREMENT": 0.248}

---

- Test system: PRMT1 (protein arginine N-methyltransferase 1)
- MEASUREMENT_PROTOCOL: small molecules binding arginine methyltransferase PRMT1 – biochemical, small-molecule microarray, 635 nm fluorescence, primary screen (AID 1088);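 further: binding of Prmt1 protein to compounds spotted on small-molecule microarray slides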
- CONDITION_PARAMETERS: higher = more signal
QUANTITY_NAME: composite z-score

{"COMPOUND": "NC(=O)[C@@H]1[C@H]2C(=O)O[C@H](c3ccccc3)[C@H](c3ccccc3)N2[C@H](c2ccccc2OCCO)[C@@]12C(=O)Nc1ccc(C#CCCO)cc12", "QUANTITY_NAME": "composite z-score", "REPORTED_MEASUREMENT": -0.155}
{"COMPOUND": "CCCCC=C[C@@H](NC(=O)CCc1ccccc1)c1ccccc1", "QUANTITY_NAME": "composite z-score", "REPORTED_MEASUREMENT": 0.887}
{"COMPOUND": "C=CCN1C(=O)[C@@]2(O[C@@H](CCn3cc([C@H](O)c4ccccc4)nn3)[C@H]([Si](C)(C)c3ccc(OC)cc3)[C@H]2C)c2cc(NC(=O)c3ccc(OC)cc3)ccc21", "QUANTITY_NAME": "composite z-score", "REPORTED_MEASUREMENT": 0.948}
{"COMPOUND": "CCCC=C(CCC)[C@@H](NS(=O)(=O)CC)c1ccccc1", "QUANTITY_NAME": "composite z-score", "REPORTED_MEASUREMENT": 1.17}
{"COMPOUND": "COC(=O)[C@@]1(Cc2ccccc2)[C@H]2c3cc(C(=O)N4CCCC4)n(Cc4ccccc4)c3C[C@H]2CN1C(=O)c1ccccc1", "QUANTITY_NAME": "composite z-score", "REPORTED_MEASUREMENT": -0.089}
{"COMPOUND": "CC(C)NC(=O)[C@@H]1c2ccccc2C(=O)N(Cc2cc(C(F)(F)F)cc(C(F)(F)F)c2)[C@H]1c1ccc(CO)cc1", "QUANTITY_NAME": "composite z-score", "REPORTED_MEASUREMENT": 1.46}
{"COMPOUND": "O=C1O[C@@H](c2ccccc2)[C@@H](c2ccccc2)N2[C@@H](c3ccc(O)cc3)[C@]3(C(=O)Nc4ccc(C#CC5=CCCCC5)cc43)[C@@H](C(=O)Nc3nc4ccccc4s3)[C@H]12", "QUANTITY_NAME": "composite z-score", "REPORTED_MEASUREMENT": 1.54}
{"COMPOUND": "COC(=O)C(CC#Cc1ccc2c(c1)[C@]1(C(=O)N2)[C@H](C(=O)N2CCc3cc(OC)c(OC)cc3C2)[C@H]2C(=O)O[C@H](c3ccccc3)[C@H](c3ccccc3)N2[C@@H]1c1ccc(O)cc1)C(=O)OC", "QUANTITY_NAME": "composite z-score", "REPORTED_MEASUREMENT": 1.48}
{"COMPOUND": "[N-]=[N+]=Nc1ccccc1C[C@]1(C(=O)NCCN2CCOCC2)N=C(c2ccc(OCCCO)cc2)O[C@H]1c1ccccc1N=[N+]=[N-]", "QUANTITY_NAME": "composite z-score", "REPORTED_MEASUREMENT": 1.55}
{"COMPOUND": "COc1ccc([Si](C)(C)[C@H]2[C@H](CC(=O)N3CCC[C@H]3CO)O[C@@]3(C(=O)N(Cc4ccc(N5C(=O)c6cccc7cccc5c67)cc4)c4ccccc43)[C@@H]2C)cc1", "QUANTITY_NAME": "composite z-score", "REPORTED_MEASUREMENT": 1.54}
{"COMPOUND": "C=CCNC(=O)[C@H]1[C@@H]2C(=O)O[C@@H](c3ccccc3)[C@@H](c3ccccc3)N2[C@@H](c2ccc(O)cc2)[C@]12C(=O)N(C(=O)OCCOC)c1ccc(C#CC3(O)CCCCCC3)cc12", "QUANTITY_NAME": "composite z-score", "REPORTED_MEASUREMENT": 1.55}
{"COMPOUND": "CC1C=C(CCCO)C=C(C(=O)OCCS(C)(=O)=O)C(C(=O)OCCS(C)(=O)=O)=CN1Cc1cccc(OC(F)(F)F)c1 (configuration not stated)", "QUANTITY_NAME": "composite z-score", "REPORTED_MEASUREMENT": 0.482}
